Where do these numbers come from? They come from patent US7994209B2.

# testedTarget: UniProt P23975
# Sequence (P23975 whole entry): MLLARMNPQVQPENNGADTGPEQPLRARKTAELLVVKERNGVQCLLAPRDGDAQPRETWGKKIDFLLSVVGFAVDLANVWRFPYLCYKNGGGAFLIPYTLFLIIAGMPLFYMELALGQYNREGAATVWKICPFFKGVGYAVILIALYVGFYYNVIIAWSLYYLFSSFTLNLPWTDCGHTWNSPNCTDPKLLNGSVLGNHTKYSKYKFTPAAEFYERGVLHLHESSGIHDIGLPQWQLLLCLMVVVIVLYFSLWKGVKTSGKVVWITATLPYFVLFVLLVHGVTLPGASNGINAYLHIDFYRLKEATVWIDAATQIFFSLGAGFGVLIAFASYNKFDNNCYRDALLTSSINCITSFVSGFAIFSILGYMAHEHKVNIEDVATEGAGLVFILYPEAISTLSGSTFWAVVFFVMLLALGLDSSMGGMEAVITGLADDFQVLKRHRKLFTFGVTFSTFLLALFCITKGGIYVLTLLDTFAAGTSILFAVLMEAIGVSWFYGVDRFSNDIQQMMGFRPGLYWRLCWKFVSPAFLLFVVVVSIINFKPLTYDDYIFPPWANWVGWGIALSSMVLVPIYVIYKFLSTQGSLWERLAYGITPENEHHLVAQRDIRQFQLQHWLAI
Recorded Ki for the following compounds
readoutType: Ki

compound: CC[C@@H](Oc1cccc(Cl)c1C(F)(F)F)[C@@H]1CCNC1
reading: ≤ 10 nM
--
compound: CC(C)C[C@H](Oc1ccc(Cl)c(F)c1F)[C@H]1CCNC1
reading: ≤ 10 nM
--
compound: CCCC[C@@H](Oc1ccc(C)cc1Cl)[C@H]1CCNC1
reading: ≤ 100 nM
--
compound: CCc1cc(F)ccc1O[C@@H](CC)[C@H]1CCNC1
reading: ≤ 10 nM
--
compound: CC[C@H](Oc1cccc(F)c1)[C@H]1CCNC1
reading: ≤ 10 nM
--
compound: CCC[C@H](Oc1ccc(Cl)cc1)[C@@H]1CCNC1
reading: ≤ 100 nM
--
compound: CC(C)C[C@H](Oc1cccc(C(F)(F)F)c1Cl)[C@H]1CCNC1
reading: ≤ 10 nM
--
compound: CC[C@H](Oc1ccc(Cl)cc1Cl)[C@H]1CCNC1
reading: ≤ 10 nM
--
compound: CC(C)CC(Oc1ccc(Cl)cc1C(F)(F)F)C1CCNC1 (stereo not drawn)
reading: ≤ 10 nM

----------
# testedTarget: hSERT (Homo sapiens, UniProt P31645)
# Sequence (P31645 whole entry): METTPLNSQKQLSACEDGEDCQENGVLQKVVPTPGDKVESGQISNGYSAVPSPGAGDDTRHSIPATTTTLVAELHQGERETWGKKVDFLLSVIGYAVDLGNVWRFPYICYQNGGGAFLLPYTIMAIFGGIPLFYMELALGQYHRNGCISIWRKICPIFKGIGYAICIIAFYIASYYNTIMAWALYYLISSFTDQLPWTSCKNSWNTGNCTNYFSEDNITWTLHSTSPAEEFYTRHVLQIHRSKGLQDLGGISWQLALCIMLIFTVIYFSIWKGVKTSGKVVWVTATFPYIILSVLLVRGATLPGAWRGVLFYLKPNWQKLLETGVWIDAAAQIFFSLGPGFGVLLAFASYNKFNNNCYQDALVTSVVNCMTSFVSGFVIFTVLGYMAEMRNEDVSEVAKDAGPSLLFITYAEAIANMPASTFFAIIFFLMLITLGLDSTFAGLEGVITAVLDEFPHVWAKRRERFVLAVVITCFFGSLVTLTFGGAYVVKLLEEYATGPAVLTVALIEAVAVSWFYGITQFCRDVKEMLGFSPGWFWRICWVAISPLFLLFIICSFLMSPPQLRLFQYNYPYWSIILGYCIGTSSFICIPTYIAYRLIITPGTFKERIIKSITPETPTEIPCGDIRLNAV
# assaySummary: fluorescence-based serotonin reuptake inhibition assay (Tsuruda et al. 2010; data indicated by an asterisk)
# Format: cell-based
# Design: expressed in transfected cells; host or cells: HEK-293
# testParameters: fluorescence-based assay (values with asterisk), read-out: SERT pIC50 (converted)
Recorded IC50 for the following compounds

molSmiles: CCC[C@H](Oc1c(C)cc(Cl)cc1Cl)[C@H]1CCNC1
testedTarget: hSERT (Homo sapiens, UniProt P31645)
IC50: ≤ 10 nM

molSmiles: Fc1c(Cl)cccc1O[C@@H](C1CC1)[C@H]1CCNC1
testedTarget: hSERT (Homo sapiens, UniProt P31645)
IC50: ≤ 10 nM

molSmiles: CCC[C@@H](Oc1ccc(Cl)cc1C)[C@@H]1CCNC1
testedTarget: hSERT (Homo sapiens, UniProt P31645)
IC50: ≤ 100 nM

molSmiles: Cc1cc(Cl)cc(Cl)c1O[C@H](C1CC1)[C@H]1CCNC1
testedTarget: hSERT (Homo sapiens, UniProt P31645)
IC50: ≤ 100 nM

molSmiles: CCC[C@@H](Oc1cc(F)cc(Cl)c1)[C@H]1CCNC1
testedTarget: hSERT (Homo sapiens, UniProt P31645)
IC50: ≤ 100 nM

molSmiles: CC(C)[C@@H](Oc1ccc(Cl)c(F)c1)[C@@H]1CCNC1
testedTarget: hSERT (Homo sapiens, UniProt P31645)
IC50: ≤ 10 nM

----------
# testedTarget: hSERT (Homo sapiens)
# assaySummary: fluorescence-based serotonin reuptake inhibition assay (Tsuruda et al. 2010; data indicated by an asterisk)
# Type: cell-based
# Set-up: expressed in transfected cells; host or cells: HEK-293
# testParameters: fluorescence-based assay (values with asterisk), read-out: SERT pIC50 (converted)
Recorded IC50 for the following molecules
readoutType: IC50

molecule: CC[C@@H](Oc1ccccc1Cl)[C@H]1CCNC1
readoutType: IC50
reading: ≤ 0.1 µM
--
molecule: Fc1ccc(Cl)c(F)c1O[C@@H](C1CC1)[C@H]1CCNC1
readoutType: IC50
reading: ≤ 0.1 µM
--
molecule: CCC[C@@H](Oc1cccc(Cl)c1F)[C@@H]1CCNC1
readoutType: IC50
reading: ≤ 0.1 µM
--
molecule: CCC[C@@H](Oc1ccc(Cl)c(Cl)c1F)[C@H]1CCNC1
readoutType: IC50
reading: ≤ 0.01 µM
--
molecule: CC(C)[C@H](Oc1cccc(Cl)c1F)[C@H]1CCNC1
readoutType: IC50
reading: ≤ 0.1 µM
--
molecule: Cc1cccc(O[C@@H](C2CC2)[C@H]2CCNC2)c1C
readoutType: IC50
reading: ≤ 0.01 µM
--
molecule: FC(F)(F)c1c(Cl)cccc1OC(C1CCCC1)C1CCNC1 (single isomer, unassigned) [Example 18-2]
readoutType: IC50
reading: ≤ 0.01 µM
--
molecule: CC(C)C[C@@H](Oc1c(Cl)cccc1Cl)[C@H]1CCNC1
readoutType: IC50
reading: ≤ 0.1 µM
--
molecule: CC(C)C[C@@H](Oc1cc(F)cc(Cl)c1)[C@H]1CCNC1
readoutType: IC50
reading: ≤ 0.1 µM
--
molecule: CC(C)C[C@H](Oc1cccc2ccccc12)[C@H]1CCNC1
readoutType: IC50
reading: ≤ 0.01 µM
--
molecule: CC[C@@H](Oc1cccc(Cl)c1C)[C@H]1CCNC1
readoutType: IC50
reading: ≤ 0.01 µM
--
molecule: CC(C)C[C@H](Oc1c(Cl)c(F)cc(F)c1Cl)[C@H]1CCNC1
readoutType: IC50
reading: ≤ 0.01 µM
--
molecule: CCC[C@H](Oc1c(F)cc(Cl)cc1F)[C@H]1CCNC1
readoutType: IC50
reading: ≤ 0.01 µM
--
molecule: CC(C)[C@H](Oc1ccc(Cl)cc1C(F)(F)F)[C@H]1CCNC1
readoutType: IC50
reading: ≤ 0.1 µM
--
molecule: COc1cc(Cl)cc(O[C@@H](C2CC2)[C@H]2CCNC2)c1
readoutType: IC50
reading: ≤ 0.1 µM
--
molecule: CC(C)C[C@H](Oc1c(F)cc(Cl)cc1F)[C@H]1CCNC1
readoutType: IC50
reading: ≤ 0.01 µM
--
molecule: CC(C)[C@@H](Oc1ccc(Cl)c(Cl)c1F)[C@H]1CCNC1
readoutType: IC50
reading: ≤ 0.01 µM
--
molecule: CC(C)[C@H](Oc1cc(F)cc(Cl)c1)[C@H]1CCNC1
readoutType: IC50
reading: ≤ 0.1 µM
--
molecule: CC(C)[C@H](Oc1c(F)cc(Cl)cc1F)[C@H]1CCNC1
readoutType: IC50
reading: ≤ 0.01 µM

----------
# testedTarget: hSERT (Homo sapiens)
# assaySummary: fluorescence-based serotonin reuptake inhibition assay (Tsuruda et al. 2010; data indicated by an asterisk)
# Format: cell-based
# Parameters: expressed in transfected cells; host or cells: HEK-293
# testParameters: fluorescence-based assay (values with asterisk), read-out: SERT pIC50 (converted)
Recorded IC50 for the following compounds

compound: Clc1cccc(Cl)c1OC(C1CCCC1)C1CCNC1 (centres unmarked)
IC50: ≤ 100 nM
--
compound: Fc1ccc(OC(C2CCCC2)C2CCNC2)cc1 (centres unmarked)
IC50: ≤ 100 nM
--
compound: Fc1ccc(O[C@H](C2CC2)[C@H]2CCNC2)c(F)c1F
IC50: ≤ 10 nM
--
compound: FC(F)(F)c1c(Cl)cccc1OC(C1CCCC1)C1CCNC1 (single isomer, unassigned) [Example 18-3]
IC50: ≤ 100 nM
--
compound: CCC[C@@H](Oc1c(Cl)ccc(Cl)c1Cl)[C@H]1CCNC1
IC50: ≤ 10 nM

----------
Recorded IC50 for the following molecules
# testedTarget: UniProt P23975
# assaySummary: fluorescence-based norepinephrine reuptake inhibition assay (Tsuruda et al. 2010; data indicated by an asterisk)
# Format: cell-based
# Set-up: expressed in transfected cells; host or cells: HEK-293
# testParameters: norepinephrine reuptake inhibition, fluorescence-based assay (values with asterisk); read-out: NET pIC50 (converted)

molecule: Cc1c(Cl)cccc1O[C@H](C(C)C)[C@@H]1CCNC1
IC50: ≤ 100 nM
--
molecule: CC(C)[C@H](Oc1cccc2ccccc12)[C@@H]1CCNC1
IC50: ≤ 100 nM
--
molecule: Clc1ccc(OC(C2CCCC2)C2CCNC2)c(Cl)c1 (single isomer, unassigned) [Example 18-4]
IC50: ≤ 100 nM
--
molecule: CC(C)[C@@H](Oc1ccc(Cl)c(Cl)c1)[C@H]1CCNC1
IC50: ≤ 100 nM
--
molecule: CC(C)C[C@H](Oc1ccc(Cl)c(F)c1)[C@H]1CCNC1
IC50: ≤ 10 nM
--
molecule: CC(C)[C@@H](Oc1ccc(Cl)c(Cl)c1)[C@@H]1CCNC1
IC50: ≤ 100 nM
--
molecule: Cc1ccc(OC(C2CCCC2)C2CCNC2)c(Cl)c1 (stereo not drawn) [Example 18-6]
IC50: ≤ 100 nM
--
molecule: Fc1ccc(Cl)c(F)c1O[C@@H](C1CC1)[C@H]1CCNC1
IC50: ≤ 10 nM
--
molecule: CCC[C@H](Oc1ccc(Cl)c(F)c1Cl)[C@H]1CCNC1
IC50: ≤ 10 nM

----------
Recorded IC50 for the following compounds
# testedTarget: hSERT (Homo sapiens)
# assaySummary: fluorescence-based serotonin reuptake inhibition assay (Tsuruda et al. 2010; data indicated by an asterisk)
# Assay type: cell-based
# Set-up: expressed in transfected cells; host or cells: HEK-293
# testParameters: fluorescence-based assay (values with asterisk), read-out: SERT pIC50 (converted)
readoutType: IC50

compound: Fc1c(Cl)ccc(O[C@@H](C2CC2)[C@H]2CCNC2)c1Cl [Example 16-52]
reading: ≤ 10 nM
--
compound: Cc1cc(O[C@@H](C2CC2)[C@H]2CCNC2)cc(C)c1Cl [Example 16-101]
reading: ≤ 10 nM
--
compound: CC[C@@H](Oc1ccc(Cl)c(C)c1)[C@H]1CCNC1 [Example 2-14]
reading: ≤ 10 nM
--
compound: CC(C)C[C@H](Oc1cccc(Cl)c1Cl)[C@H]1CCNC1 [Example 9]
reading: ≤ 10 nM
--
compound: CC(C)[C@H](Oc1c(F)cc(Cl)cc1Cl)[C@@H]1CCNC1 [Example 6-32]
reading: ≤ 100 nM
--
compound: Cc1cc(Cl)cc(Cl)c1O[C@@H](C(C)C)[C@H]1CCNC1 [Example 6-33]
reading: ≤ 10 nM
--
compound: Clc1ccccc1O[C@@H](C1CC1)[C@H]1CCNC1 [Example 16-1]
reading: ≤ 100 nM
--
compound: CC[C@H](Oc1c(F)cc(Cl)cc1Cl)[C@H]1CCNC1 [Example 2-35]
reading: ≤ 10 nM
--
compound: Cc1cc(O[C@H](CC(C)C)[C@H]2CCNC2)ccc1Cl [Example 10-76]
reading: ≤ 10 nM
